# System: Escherichia coli TOP10;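 further: peptides expressed intracellularly from a pBAD plasmid library in pooled LB shake-flask culture, induced with 0.3% L-arabinose, DNA abundance read by NGS, three biological replicates, DESeq2 with apeglm shrinkage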
# Assay Info: shrunken log2 fold change of peptide-encoding DNA abundance (4.5 h post-induction vs induction); higher = less antimicrobial activity (less host growth inhibition)
# Settings: time post-induction: 4.5 h; library: site-saturation at positions 5, 18, 19, 20
Experimental Endpoint: shrunken log2 fold change
Answers are plain numbers.

* RRIRCRPPRLPRPRPRPERFPRP | 0.00138
* RRIRWRPPRLPRPRPRPFIYPRP | -0.467
* RRIRHRPPRLPRPRPRPDLMPRP | -0.175
* RRIRCRPPRLPRPRPRPTSNPRP | -0.1
* RRIRARPPRLPRPRPRPPCDPRP | 0.506

Respectfully, I request shrunken log2 fold change for each entry included below.
1. RRIRGRPPRLPRPRPRPCYMPRP
2. RRIRLRPPRLPRPRPRPWADPRP
3. RRIRNRPPRLPRPRPRPVQEPRP
4. RRIRRRPPRLPRPRPRPPSTPRP
5. RRIRPRPPRLPRPRPRPFTDPRP
6. RRIRCRPPRLPRPRPRPCGAPRP

Reply:
1: -0.328; 2: -0.118; 3: -0.0428; 4: 0.585; 5: -0.247; 6: 0.285

These data points were gathered from the supplement of paper PMC9112550.
